Every entry's value here was drawn from patent US20260193326A1.

# assaySystem: T1, AAV2 (adeno-associated virus 2, UniProt P03135 1-735)
# T1 construct: also called adeno-associated virus serotype 2
# T1 sequence (P03135 whole entry): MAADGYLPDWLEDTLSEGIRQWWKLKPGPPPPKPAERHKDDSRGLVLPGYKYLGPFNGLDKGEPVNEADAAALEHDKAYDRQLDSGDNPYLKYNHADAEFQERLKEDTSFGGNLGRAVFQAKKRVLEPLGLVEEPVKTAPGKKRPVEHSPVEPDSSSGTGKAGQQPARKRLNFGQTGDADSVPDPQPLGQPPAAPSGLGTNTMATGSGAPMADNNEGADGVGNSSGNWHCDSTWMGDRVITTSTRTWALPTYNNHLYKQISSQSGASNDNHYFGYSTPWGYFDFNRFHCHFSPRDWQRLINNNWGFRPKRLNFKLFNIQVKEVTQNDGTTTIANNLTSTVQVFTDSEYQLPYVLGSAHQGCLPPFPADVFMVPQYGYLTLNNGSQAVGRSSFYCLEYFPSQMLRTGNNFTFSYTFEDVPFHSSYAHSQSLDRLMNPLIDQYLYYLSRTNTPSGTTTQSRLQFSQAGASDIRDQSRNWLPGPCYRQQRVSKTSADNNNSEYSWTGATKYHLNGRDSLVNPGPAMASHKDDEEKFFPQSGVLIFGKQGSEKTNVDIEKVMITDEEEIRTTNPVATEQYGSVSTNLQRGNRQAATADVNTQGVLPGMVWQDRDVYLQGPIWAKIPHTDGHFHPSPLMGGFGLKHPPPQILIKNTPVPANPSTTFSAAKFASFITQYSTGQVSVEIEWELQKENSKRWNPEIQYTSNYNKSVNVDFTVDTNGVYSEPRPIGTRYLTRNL
# testProtocol: SPR, AAV amine-coupled to CM5 chip;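 also: nanobodies flowed as analyte at seven concentrations spanning 1–100 nM over immobilized AAV (500–800 RU), kinetic constants derived by fitting the binding curves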
Rule: measured kon below 20000 M⁻¹ s⁻¹ gets yes; anything equal to or greater than 20000 M⁻¹ s⁻¹ gets no.

Observe how each entry below is paired with its result.
* A4-088 (VHH) VHH: VQLQESGGGLVQTGGSLRLSCAASGSRFSLNTMGWYRQAPGKQRELVAAVTRGGNTNYGDFVKGRFTISRDNAKNTVYLQMNSLRPEDTAVYYCHVDELRESSWTTSNLWGQGTQVTVSS | yes
* A4-090 (VHH) VHH: VQLQESGGGLVQPGGSLRLSCVASGSRFIINTMGWYRQAPGKQRELVATFTRGGNTNYAESVKGRFTISRDNGKSTVYLQMNSLRPEDTAVYYCHVDEVRESTWTTSNLWGQGTQVTVSS | no
* A4-074 (VHH) VHH: VQLQESGGGLVQSGGSLRLSCAASGSMFSLNTMGWYRQAPGKQRELVATITRGGGTSYADSVKGRFTISRDNAKNTVYLQMNSLRPEDTAVYYCHVDELRQSSWTTSNLWGQGTQVTVSS | no
* A4-068 (VHH) VHH: VQLQESGGGLVQTGGSLRLSCAASGRAFSLNTMGWYRQAPGKWRELVATVTRGGSTNYAGSVKGRFTISRDNAKNTVYLQMNNLRPEDTAVYYCHVDEVRESSWTTSNLWGQGTQVTVSS | no
* A4-051 (VHH) VHH: VQLQESGGGLVQPGGSLRLSCAASGSSFVINTMGWYRRAPGKQRELVAAVTRGGSTNYADSVKGRFTISRDNAKNTVYLQMNSLRPEDTAVYYCHVDEVRQSSWTTSNLWGQGTQVTVSS | yes
* A4-071 (VHH) VHH: VQLQESGGGAVQAGGSLRLSCAASGSTFSINTMGWYRQAPGKQRELVATVTRGGSTNYGDFVKGRFTISRDNAKNTVYLQMNTLRPEDTAVYYCHLDEVRQSSWTTSNLWGQGTQVTVSS | no

Request: Hello, I'm reviewing records and need to know if kon of A4-076 (VHH) VHH: VQLQESGGGLVHSGGSLRLSCAASGSMFSLNTMGWYRQAPGKQRELVATITRGGGTSYADSVKGRFTISRDNAKNTVYLQMNSLRPEDTAVYYCHVDELRQSSWTTSNLWGQGTQVTVSS is below 20000 M⁻¹ s⁻¹. Could you check?
Result: yes

Request: Hello, I'm reviewing records and need to know if kon of A4-067 (VHH) VHH: VQLQESGGGLVQTGGSLRLSCAASGRAFSLNTMGWYRQAPGKWRELVATVTRGGSTNYAGSVKGRFTISRDNTKNTVYLQMNNLRPEDTAVYYCHVDEVRESSWTTSNLWGQGTQVTVSS is below 20000 M⁻¹ s⁻¹. Could you check?
Result: yes
